Taken from the supplement of paper PMC8149375.

Tested on: ACHN
experimental_protocol: minimum viability across doses, drug + dasatinib, relative to DMSO (fraction); higher = less growth inhibition
run_conditions: treatment: drug + dasatinib (fixed dose, not stated); 5 days
Kindly state minimum viability across doses for each of the entries shown.
// return a plain number; no unit text

q: So what's the measured minimum viability across doses for this one? Cn1cc(-c2ccc3ncc(Cc4ccc5ncccc5c4)n3n2)cn1 [NVP-BVU972] + Cc1nc(Nc2ncc(C(=O)Nc3c(C)cccc3Cl)s2)cc(N2CCN(CCO)CC2)n1
a: 0.0103

q: Query (compound): S=C(NCc1ccc2c(c1)OCO2)N1CCN(c2ncnc3c2oc2ccccc23)CC1 [Amuvatinib (MP-470)_R2] + Cc1nc(Nc2ncc(C(=O)Nc3c(C)cccc3Cl)s2)cc(N2CCN(CCO)CC2)n1 ; field requested: minimum viability across doses
a: 0.17

q: Requested field: minimum viability across doses. Item: Cc1ccc(NC(=O)c2cccc(C(C)(C)C#N)c2)cc1Nc1ccc2ncn(C)c(=O)c2c1 [AZ628] + Cc1nc(Nc2ncc(C(=O)Nc3c(C)cccc3Cl)s2)cc(N2CCN(CCO)CC2)n1
a: 0.174

q: Can you look up the measured minimum viability across doses of COc1ccc2c(Oc3ccc(NC(=O)c4c(C)n(CC(C)(C)O)n(-c5ccccc5)c4=O)nc3)ccnc2c1 [AMG458] + Cc1nc(Nc2ncc(C(=O)Nc3c(C)cccc3Cl)s2)cc(N2CCN(CCO)CC2)n1 for me?
a: 0.152

q: Give its minimum viability across doses value. Item: Nc1ncnc2c1c(-c1cnc3[nH]ccc3c1)nn2C1CCCC1 [PP-121] + Cc1nc(Nc2ncc(C(=O)Nc3c(C)cccc3Cl)s2)cc(N2CCN(CCO)CC2)n1
a: 0.0126

q: Which measured minimum viability across doses value corresponds to O=C(NCCCNc1nc(Nc2cccc(NC(=O)N3CCCC3)c2)ncc1I)c1cccs1 [BX-795] + Cc1nc(Nc2ncc(C(=O)Nc3c(C)cccc3Cl)s2)cc(N2CCN(CCO)CC2)n1 ?
a: 0.155

q: Would you kindly share the measured minimum viability across doses for O=C(Cc1ccc(-c2ccc(OCCN3CCOCC3)cc2)cn1)NCc1ccccc1 [KX2-391] + Cc1nc(Nc2ncc(C(=O)Nc3c(C)cccc3Cl)s2)cc(N2CCN(CCO)CC2)n1 ?
a: 0.1

q: Using the record for CCN(CC)CCCCNc1ncc2cc(-c3cc(OC)cc(OC)c3)c(NC(=O)NC(C)(C)C)nc2n1 + Cc1nc(Nc2ncc(C(=O)Nc3c(C)cccc3Cl)s2)cc(N2CCN(CCO)CC2)n1 , report its minimum viability across doses.
a: 0.042

q: Would you mind telling me what minimum viability across doses value was observed for CC1(C)CCC(CN2CCN(c3ccc(C(=O)NS(=O)(=O)c4ccc(NCC5CCOCC5)c([N+](=O)[O-])c4)c(Oc4cnc5[nH]ccc5c4)c3)CC2)=C(c2ccc(Cl)cc2)C1 [ABT-199 (GDC-0199 )] + Cc1nc(Nc2ncc(C(=O)Nc3c(C)cccc3Cl)s2)cc(N2CCN(CCO)CC2)n1 ?
a: 0.542

###

Tested on: ACHN
experimental_protocol: GI50 of drug in presence of dasatinib; higher = less potent
run_conditions: treatment: drug + dasatinib (fixed dose, not stated); 5 days
parameter: GI50 of drug (µM)
Give the value, in units of µM, as a plain number.

q: For O=C(O)c1ccc(Nc2ncc3c(n2)-c2ccc(Cl)cc2C(c2c(F)cccc2F)=NC3)cc1 [MLN8054] + Cc1nc(Nc2ncc(C(=O)Nc3c(C)cccc3Cl)s2)cc(N2CCN(CCO)CC2)n1 , what is its reported GI50 of drug?
a: 0.398

q: Requested field: GI50 of drug. Item: COc1ncc(-c2ccc3nccc(-c4ccnnc4)c3c2)cc1NS(=O)(=O)c1ccc(F)cc1F + Cc1nc(Nc2ncc(C(=O)Nc3c(C)cccc3Cl)s2)cc(N2CCN(CCO)CC2)n1
a: 0.00821
